Molecular target: human Claudin-6 (CLDN6) (human) (UniProt P56747)
Assay: FACS titration of labelled mAb on ARK2 cells (endogenous CLDN6+)
Entries and their pEC50
Value format note: pEC50 is -log10 of concentration (mol/L); just state the number.

binder: AB19 (antibody, V domains shown) VH: EVQLQQSGPELVKPGGSMKISCKASGYSFTGYTMNWVKRSHGKNLEWIGLINPYNGVTTYNQNFKGKATLAVDKSSSTAYMELLGLTSEDSAVYYCTRDPLYYGYRDSTMDYWGQGTSVTVSS VL: NIMMTQSPSSLAVSAGEKVTMSCKSSQSVLFSSNQKNYLAWYQQKPGQSPRLLIYWASTRESGVPDRFTGSGSGTDFTLTISNVQAEDLAVYYCHQYLSSRTFGAGTKLELK
data value: 5.30
--
binder: AB1 (antibody, V domains shown, full-length IgG (ExpiCHO)) VH: QVQLQQSAAELARPGASVKMSCKASGYTFTTYTMHWVKQRPGQGLEWIGFINPSSGYTDYNQKFKDRTTLTADKSSSTVYMQLSSLTSEDSAVYYCANGDYYVAYWGQGTLVTVSA VL: QIVLTQSPAIMSASLGERVTMTCTASSSVSSTYFHWYQQKPGSSPKLWIYSTSNLASGVPRRFSGSASGTSYSLTISSMEAEDAATYYCHQYHRSPLTFGAGTKLELK
data value: 6.98
--
binder: AB1-6 (antibody, V domains shown, humanized) VH: QVQLVQSGAEVKKPGASVKMSCKASGYTFTTYTMHWVRQAPGQGLEWIGFINPSSGYTDYAQKFQGRVTLTADTSTSTVYMELSSLRSEDTAVYYCANGDYYVAYWGQGTLVTVSS VL: DIQMTQSPSSLSASVGDRVTITCTASSSVSSTYFHWYQQKPGKAPKLLIYSTSNLASGVPSRFSGSGSGTDYTLTISSLQPEDFATYYCHQYHRSPLTFGQGTKLEIK
data value: 5.30
--
binder: AB8 (antibody, V domains shown, full-length IgG (ExpiCHO)) VH: QVQLQQSGAELARPGASVKMSCKASGYTFTTYTMHWLKQRPGQGLEWIGYINPRSGYSNYNQKFKDKATLTADKSSNTAYMQLNTLTSEDSKVYYCSRGELGGFAYWGQGTLVTVSA VL: DVVMTQTPLSLPVSLGDQASISCRSSQSLVHSDGNTYLYWYLQKPGQSPKLLIYKVSNRFSGVPDRFSGSGSGTDFTLKISRVEAEDLGVYFCSQSTHVPYTFGGGTKLEIK
data value: 5.94

Q) Quote pEC50 reported for AB4 (antibody, V domains shown, full-length IgG (ExpiCHO)) VH: QVQLQQSGAELARPGASVKMSCKASGYTFTSYTMHWIKQRPGQGQEWIGYINPSSTYTHYIKKFKDKATLTADKSSSTAYMQLRSLTSEDSAVYYCSRGELGGFAYWGQGTLVTVSA VL: DVVMTQTPLSLPVSLGDQASISCRSSQSLVHSDGNTYLNWYLQKPGQSPKLLIYKVSNRFSGVPDRFSGSGSGTDFTLKIRRVEAEDLGVYFCSQSTHVPYTFGGGTKLEIK please.
A) 7.32
